Test system: RXRa homodimer (NR concentration 180 nM)
ASSAY NAME: PBM binding z-score (relative to random genomic background probes); higher = stronger binding; sequences stand for … in GC…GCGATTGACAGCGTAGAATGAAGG
Listed below: PBM binding z-score values for each entry.
// no unit, no text: just the number

The cases that follow already have their PBM binding z-score on record.
ORDERED RESIDUES | EXPERIMENTAL SYSTEM | OBSERVED PROPERTY | RESULT NUMBER
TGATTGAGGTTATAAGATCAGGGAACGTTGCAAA | RXRa homodimer (NR concentration 180 nM) | PBM binding z-score | 2.06
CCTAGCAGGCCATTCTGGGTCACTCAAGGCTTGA | RXRa homodimer (NR concentration 180 nM) | PBM binding z-score | 1.14
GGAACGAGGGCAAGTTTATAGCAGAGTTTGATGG | RXRa homodimer (NR concentration 180 nM) | PBM binding z-score | 0.81
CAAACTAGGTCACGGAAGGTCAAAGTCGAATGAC | RXRa homodimer (NR concentration 180 nM) | PBM binding z-score | 7.3
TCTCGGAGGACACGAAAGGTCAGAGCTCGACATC | RXRa homodimer (NR concentration 180 nM) | PBM binding z-score | 3.97
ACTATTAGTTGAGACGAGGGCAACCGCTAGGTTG | RXRa homodimer (NR concentration 180 nM) | PBM binding z-score | 0.516
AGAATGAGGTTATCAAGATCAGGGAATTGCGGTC | RXRa homodimer (NR concentration 180 nM) | PBM binding z-score | 2.19
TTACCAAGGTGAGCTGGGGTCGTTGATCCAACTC | RXRa homodimer (NR concentration 180 nM) | PBM binding z-score | 2.1

Requested field: PBM binding z-score. Item: "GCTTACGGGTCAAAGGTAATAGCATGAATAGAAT" 6.87

// query: "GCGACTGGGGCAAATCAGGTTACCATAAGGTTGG" 0.576

// query: "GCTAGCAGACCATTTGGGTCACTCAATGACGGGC" 0.514

// query: "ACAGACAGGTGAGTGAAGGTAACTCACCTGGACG" 0.429
